Entry source: patent US12441768B2

Readings of pKd for the listed compounds
Biological target: β-catenin (Homo sapiens)
Assay: KD50 measurement using competitive fluorescence polarization (FP) with labelled TCF4
Type: binding
Settings: fluorescence polarization, β-catenin; read-out: β-Cat FP KD
Method: Fluorescence polarization (FP) is another method used to analyze protein-ligand interactions. This methodology measures the change in fluorescence light emitted by a labelled compound free vs. conjugated to another compound in solution. Upon binding of the fluorescent molecule to a complex, polarization increases because of limited rotation of the fluorescent tracer. […] Data were analyzed and plotted in Microsoft Excel (Microsoft, Redmond, WA). […]
pKd: −log10 of the molar value. Where a SMILES comes first, the peptide text is derived from it.

Guide cases for pKd, answers given:
Prompt: Param item = CC[C@H](C)[C@@H]1NC(=O)[C@H](CC(C)C)NC(=O)[C@H](Cc2ccccc2)NC(=O)[C@H](Cc2c[nH]c3ccccc23)NC(=O)[C@H](CCSC)NC(=O)CCCNC(=O)C[C@@H](C(=O)O)NC(=O)[C@H](Cc2c[nH]c3ccccc23)NC(=O)[C@H](Cc2ccccc2)NC(=O)[C@H](CS)NC1=O [compound 147] (HELM PEPTIDE1{[O=C(CCCN[*:1])[*:2]].M.W.F.L.I.C.F.W.D}$PEPTIDE1,PEPTIDE1,1:R1-10:R3$$$V2.0) ; retrieve measured pKd.
Completion: < 4.52

Prompt: And then CC[C@H](C)[C@H](NC(=O)[C@H](CC(C)C)NC(=O)C(C)(Cc1ccccc1)NC(=O)[C@H](Cc1c[nH]c2ccccc12)NC(=O)[C@@H](N)CCSC)C(=O)N[C@@H](CS)C(=O)N[C@@H](Cc1ccccc1)C(=O)N[C@@H](Cc1c[nH]c2ccccc12)C(=O)NCC(=O)O (stereo partly drawn) [compound 131] (HELM PEPTIDE1{M.W.[CC(Cc1ccccc1)(N[*:1])C(=O)[*:2]].L.I.C.F.W.G}$$$$V2.0) , what is it?
Completion: > 6.40

Now for a further compound.
Prompt: Param item = CC[C@H](C)[C@H](NC(=O)[C@H](Cc1c[nH]c2ccccc12)NC(=O)[C@@H](N)CCSC)C(=O)N[C@@H](CC(C)C)C(=O)N[C@H](C(=O)NC(C)(CO)C(=O)N[C@@H](Cc1ccccc1)C(=O)N[C@@H](Cc1c[nH]c2ccccc12)C(=O)NCC(=O)O)[C@@H](C)CC (stereo partly drawn) [compound 136] (HELM PEPTIDE1{M.W.I.L.I.[CC(CO)(N[*:1])C(=O)[*:2]].F.W.G}$$$$V2.0) ; retrieve measured pKd.
Completion: 6.00 to 6.40

---

Readings of pKd for the listed compounds
Target: β-catenin (Homo sapiens, UniProt P35222)
Sequence (P35222 1-781): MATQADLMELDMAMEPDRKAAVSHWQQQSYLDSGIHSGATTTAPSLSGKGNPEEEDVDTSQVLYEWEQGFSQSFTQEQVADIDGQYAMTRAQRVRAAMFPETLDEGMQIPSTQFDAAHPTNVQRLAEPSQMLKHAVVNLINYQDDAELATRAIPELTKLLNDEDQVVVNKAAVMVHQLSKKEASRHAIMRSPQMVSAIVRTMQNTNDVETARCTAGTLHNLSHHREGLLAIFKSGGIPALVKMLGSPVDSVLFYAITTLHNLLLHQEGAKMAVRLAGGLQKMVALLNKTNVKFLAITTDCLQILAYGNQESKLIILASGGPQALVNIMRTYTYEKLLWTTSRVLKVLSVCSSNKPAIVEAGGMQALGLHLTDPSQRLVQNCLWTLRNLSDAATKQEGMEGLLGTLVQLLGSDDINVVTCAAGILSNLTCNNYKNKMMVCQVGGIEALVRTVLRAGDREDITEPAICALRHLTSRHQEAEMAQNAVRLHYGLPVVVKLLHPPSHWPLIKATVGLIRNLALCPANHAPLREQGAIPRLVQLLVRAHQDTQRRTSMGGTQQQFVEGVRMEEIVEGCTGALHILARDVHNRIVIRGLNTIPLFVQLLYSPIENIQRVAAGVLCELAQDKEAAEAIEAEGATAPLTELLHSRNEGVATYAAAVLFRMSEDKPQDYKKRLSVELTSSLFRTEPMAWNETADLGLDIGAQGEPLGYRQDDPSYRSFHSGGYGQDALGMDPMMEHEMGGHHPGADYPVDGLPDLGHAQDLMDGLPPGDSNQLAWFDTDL
Experiment: KD50 measurement using competitive fluorescence polarization (FP) with labelled TCF4
Assay type: binding
Settings: fluorescence polarization, β-catenin; read-out: β-Cat FP KD
pKd: −log10 of the molar value. Where a SMILES comes first, the peptide text is derived from it.

Guide cases for pKd, answers given:
Prompt: Param item = CC[C@H](C)[C@H](NC(=O)[C@H](CC(C)C)NC(=O)[C@@H](NC(=O)[C@H](Cc1c[nH]c2ccccc12)NC(=O)[C@@H](N)Cc1c[nH]cn1)[C@@H](C)CC)C(=O)N[C@@H](CS)C(=O)N[C@@H](Cc1ccccc1)C(=O)N[C@@H](Cc1c[nH]c2ccccc12)C(=O)NCC(=O)O [compound 118] (H-HWILICFWG-OH) ; retrieve measured pKd.
Completion: < 4.52

Prompt: And then CC[C@H](C)[C@H](NC(=O)[C@H](CC(C)C)NC(=O)[C@H](Cc1ccccc1)NC(=O)[C@H](Cc1c[nH]c2ccccc12)NC)C(=O)N[C@@H](CO)C(=O)N[C@@H](Cc1ccccc1)C(=O)N[C@@H](Cc1c[nH]c2ccccc12)C(=O)O [compound 111] (HELM PEPTIDE1{[meW].F.L.I.S.F.W}$$$$V2.0) , what is it?
Completion: 6.00 to 6.40

***
Prompt: Param item = CC[C@H](C)[C@H](NC(=O)[C@H](CC(C)C)NC(=O)[C@@H](NC(=O)[C@H](Cc1c[nH]c2ccccc12)NC(=O)[C@H](CCSC)NC(C)=O)[C@@H](C)CC)C(=O)N[C@@H](CO)C(=O)N[C@@H](Cc1ccccc1)C(=O)N[C@@H](Cc1c[nH]c2ccccc12)C(=O)N(C)CC(=O)O [compound 221] (HELM PEPTIDE1{[ac].M.W.I.L.I.S.F.W.[Sar]}$$$$V2.0) ; retrieve measured pKd.
Completion: > 6.40
